# System: NCI-H460
# test_protocol: Growth inhibition of human NCI-H460 cells at 40 ug/ml after 72 hrs by MTT assay
# Type: functional
# conditions_used: NCI-H460, 72 h, read-out: GI
measured_attribute: inhibition of growth at 40 µg/mL (%)
Give the number; % is assumed, so skip it.

For the compound Cc1cc(Cl)cc(C(=O)NC(C)C)c1NC(=O)C1CC(c2ccc(Cl)cc2)=NO1 (stereo not drawn) , what inhibition of growth at 40 µg/mL is on record?
10.3

Find the recorded inhibition of growth at 40 µg/mL belonging to CNC(=O)c1ccccc1NC(=O)C1CC(c2ccc(Cl)cc2)=NO1 (stereo not drawn) and report it.
5.7

Looking for the measured inhibition of growth at 40 µg/mL of Cc1cc(Cl)cc2c(=O)oc(C3CC(c4ccc(F)cc4)=NO3)nc12 (stereo not drawn) , can you help?
64.6
